Listed next: entries and their corresponding MIC.
- Tested on: Escherichia coli ATCC 43895
- Assay: Broth microdilution assay
- Conditions: E. coli (G−); TSB, 37° C., 24 h
# number only, unit µM dropped from output

CCCNC(=O)[C@H](OC(=O)CCCCCCCCCCCN)[C@@H](OC(=O)CCCCCCCCCCCN)C(=O)NCCC.Cl.Cl [Amphiphile B11] :: 100

With Escherichia coli ATCC 43895 as the test system, CCCCCCCCC(=O)OC(C(=O)NCCN)C(OC(=O)CCCCCCCC)C(=O)NCCN.Cl.Cl (centres unmarked) [Amphiphile G7] showed MIC of 63

With Escherichia coli ATCC 43895 as the test system, CCCNC(=O)[C@H](OC(=O)CCCCCCCN)[C@@H](OC(=O)CCCCCCCN)C(=O)NCCC.Cl.Cl [Amphiphile B7] showed MIC of 1000

With Escherichia coli ATCC 43895 as the test system, CCCCCCCCCCC(=O)OC(C(=O)NCCN)C(OC(=O)CCCCCCCCCC)C(=O)NCCN.Cl.Cl (centres unmarked) [Amphiphile G9] showed MIC of 125

With Escherichia coli ATCC 43895 as the test system, CCCNC(=O)[C@H](OC(=O)CCCCCCCCCN)[C@@H](OC(=O)CCCCCCCCCN)C(=O)NCCC.Cl.Cl [Amphiphile B9] showed MIC of 500
